target: KRAS G12C (Homo sapiens, UniProt P01116+P62937, G12C); assay: Disruption of BRAF RBD interaction with Ras (FRET / MOA assay, with Cyclophilin A); assay type: biochemical; conditions: KRAS G12C; read-out: KRAS G12C FRET data IC50
Sequence (P01116 1-169 isoform P01116-2 G12C): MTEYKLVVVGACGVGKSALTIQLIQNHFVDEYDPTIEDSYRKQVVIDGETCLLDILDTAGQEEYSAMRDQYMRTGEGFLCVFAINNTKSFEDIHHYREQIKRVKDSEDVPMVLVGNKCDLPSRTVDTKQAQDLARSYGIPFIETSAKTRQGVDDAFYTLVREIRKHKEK
Sequence (P62937 whole entry): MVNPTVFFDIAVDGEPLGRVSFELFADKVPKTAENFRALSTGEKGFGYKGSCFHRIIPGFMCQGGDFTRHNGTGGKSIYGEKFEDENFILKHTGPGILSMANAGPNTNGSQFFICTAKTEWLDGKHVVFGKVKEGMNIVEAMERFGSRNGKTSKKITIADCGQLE
property_name: IC50

The cases that follow already have their IC50 on record.
| compound | property_name | value_measured |
| --- | --- | --- |
| C=CC(=O)N1CC[C@H](C(=O)N(C)[C@H](C(=O)N[C@H]2Cc3cc(O)cc(c3)-c3ccc4c(c3)c(c(-c3ccccc3CN(C)C)n4CC)CC(C)(C)COC(=O)[C@@H]3CCCN(N3)C2=O)C(C)C)C1 | IC50 | 10 to 100 nM |
| C=CC(=O)N1CC[C@H](C(=O)N(C)[C@H](C(=O)N[C@H]2Cc3cc(O)cc(c3)-c3ccc4c(c3)c(c(-c3cccnc3[C@H](C)OC)n4C)CC(C)(C)COC(=O)[C@@H]3CCCN(N3)C2=O)C(C)C)C1 | IC50 | 100 to 1000 nM |
| C=CC(=O)N1CC[C@H](C(=O)N(C)[C@H](C(=O)N[C@H]2Cc3cc(O)cc(c3)-c3ccc4c(c3)c(c(C3=C(COC)COCC3)n4CC)CC(C)(C)COC(=O)[C@@H]3CCCN(N3)C2=O)C(C)C)C1 | IC50 | 10 to 100 nM |
| C=CC(=O)N1CC[C@H](C(=O)N(C)[C@H](C(=O)N[C@H]2Cc3cc(O)cc(c3)-c3ccc4c(c3)c(c(-c3cnccc3[C@H](C)OC)n4CC)CC(C)(C)COC(=O)[C@@H]3CCCN(N3)C2=O)C(C)C)C1 | IC50 | < 10 nM |

Fill in the recorded IC50 for this compound, with KRAS G12C (Homo sapiens, UniProt P01116+P62937, G12C) as test system: C=CC(=O)N1CC[C@H](C(=O)N(C)[C@H](C(=O)N[C@H]2Cc3cc(O)cc(c3)-c3ccc4c(c3)c(c(-c3ccncc3COC)n4CC)CC(C)(C)COC(=O)[C@@H]3CCCN(N3)C2=O)C(C)C)C1
10 to 100 nM

Fill in the recorded IC50 for this compound, with KRAS G12C (Homo sapiens, UniProt P01116+P62937, G12C) as test system: CCn1c(-c2cccnc2[C@H](C)OC)c2c3cc(ccc31)-c1csc(n1)C[C@H](NC(=O)[C@H](COC1CN(C(=O)C#CC(C)(C)N(C)C)C1)OC)C(=O)N1CCC[C@H](N1)C(=O)OCC(C)(C)C2 (atropisomer, axis not shown)
< 10 nM

Fill in the recorded IC50 for this compound, with KRAS G12C (Homo sapiens, UniProt P01116+P62937, G12C) as test system: C=CC(=O)N1CC[C@H](C(=O)N(C)[C@H](C(=O)N[C@H]2Cc3cc(O)cc(c3)-c3ccc4c(c3)c(c(-c3c(F)cccc3CCOC)n4CC)CC(C)(C)COC(=O)[C@@H]3CCCN(N3)C2=O)C(C)C)C1
100 to 1000 nM

Fill in the recorded IC50 for this compound, with KRAS G12C (Homo sapiens, UniProt P01116+P62937, G12C) as test system: C=CC(=O)N1CC[C@H](C(=O)N(C)[C@H](C(=O)N[C@H]2Cc3cc(O)cc(c3)-c3ccc4c(c3)c(c(-c3cccc(CN(C)C)c3)n4CC)CC(C)(C)COC(=O)[C@@H]3CCCN(N3)C2=O)C(C)C)C1
100 to 1000 nM

Fill in the recorded IC50 for this compound, with KRAS G12C (Homo sapiens, UniProt P01116+P62937, G12C) as test system: C=CC(=O)N1C[C@H](C)[C@H](C(=O)N(C)[C@H](C(=O)N[C@H]2Cc3cc(O)cc(c3)-c3ccc4c(c3)c(c(-c3ccccc3CN(C)C)n4CC)CC(C)(C)COC(=O)[C@@H]3CCCN(N3)C2=O)C(C)C)C1
10 to 100 nM

Fill in the recorded IC50 for this compound, with KRAS G12C (Homo sapiens, UniProt P01116+P62937, G12C) as test system: CC#CC(=O)N1CC[C@H](C(=O)N(C)[C@H](C(=O)N[C@H]2Cc3nc(cs3)-c3ccc4c(c3)c(c(-c3cccnc3[C@H](C)OC)n4CC)CC(C)(C)COC(=O)[C@@H]3CCCN(N3)C2=O)C(C)C)C1
100 to 1000 nM

Fill in the recorded IC50 for this compound, with KRAS G12C (Homo sapiens, UniProt P01116+P62937, G12C) as test system: C=CC(=O)N1CCOC2(CCN(C(=O)N(C)[C@H](C(=O)N[C@H]3Cc4cccc(c4)-c4ccc5c(c4)c(c(-c4cccnc4[C@H](C)OC)n5CC(F)(F)F)CC(C)(C)COC(=O)C4CCCN(N4)C3=O)C(C)C)CC2)C1 (some centres unmarked)
100 to 1000 nM

Fill in the recorded IC50 for this compound, with KRAS G12C (Homo sapiens, UniProt P01116+P62937, G12C) as test system: C=CC(=O)N1CC[C@H](C(=O)N(C)[C@H](C(=O)N[C@H]2Cc3cc(O)cc(c3)-c3ccc4c(c3)c(c(C3=C(COC)CCCC3)n4CC)CC(C)(C)COC(=O)[C@@H]3CCCN(N3)C2=O)C(C)C)C1
10 to 100 nM

Fill in the recorded IC50 for this compound, with KRAS G12C (Homo sapiens, UniProt P01116+P62937, G12C) as test system: CCn1c(-c2cccnc2[C@H](C)OC)c2c3cc(ccc31)-c1cccc(c1)C[C@H](NC(=O)[C@H](C(C)C)N(C)C(=O)[C@H]1CCN(C(=O)C#CC3CC(F)(F)CN3C)C1)C(=O)N1CCC[C@H](N1)C(=O)OCC(C)(C)C2 (some centres unmarked)
10 to 100 nM

Fill in the recorded IC50 for this compound, with KRAS G12C (Homo sapiens, UniProt P01116+P62937, G12C) as test system: C=CC(=O)N(C)C1CCN(C(=O)N(C)[C@H](C(=O)N[C@H]2Cc3nc(cs3)-c3ccc4c(c3)c(c(-c3cccnc3[C@H](C)OC)n4CC)CC(C)(C)COC(=O)[C@@H]3CCCN(N3)C2=O)C(C)C)C1 (some centres unmarked)
10 to 100 nM

Fill in the recorded IC50 for this compound, with KRAS G12C (Homo sapiens, UniProt P01116+P62937, G12C) as test system: C=CC(=O)N1CC[C@H](C(=O)N(C)[C@H](C(=O)N[C@H]2Cc3cc(O)cc(c3)-c3ccc4c(c3)c(c(-c3cccnc3COCC)n4CC)CC(C)(C)COC(=O)[C@@H]3CCCN(N3)C2=O)C(C)C)C1
10 to 100 nM

Fill in the recorded IC50 for this compound, with KRAS G12C (Homo sapiens, UniProt P01116+P62937, G12C) as test system: CCn1c(-c2cccnc2COC)c2c3cc(ccc31)-c1cc(O)cc(c1)C[C@H](NC(=O)[C@H](C(C)C)N(C)C(=O)[C@H]1CCN(C(=O)/C=C/CN3CCN(C)CC3)C1)C(=O)N1CCC[C@H](N1)C(=O)OCC(C)(C)C2
10 to 100 nM

Fill in the recorded IC50 for this compound, with KRAS G12C (Homo sapiens, UniProt P01116+P62937, G12C) as test system: C=CC(=O)N1CC[C@H](C(=O)N(C)[C@H](C(=O)N[C@H]2Cc3cc(O)cc(c3)-c3ccc4c(c3)c(c(-c3cnn(C)c3)n4CC)CC(C)(C)COC(=O)[C@@H]3CCCN(N3)C2=O)C(C)C)C1
100 to 1000 nM
